Provenance of the data: the supplement of paper PMC12042874

- assay protocol: amyloid nucleation score (Sup35N fusion, yeast selection) (log enrichment); library NNK1; higher = more nucleation; inactive = no reads after selection;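 further: zero at mode of non-aggregating sequences after 7 days selection at 30°C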
Everything with amyloid nucleation score lower than 0.8 is N; everything else, including exactly 0.8, is Y.

Example entries begin here.
- substance: "AYNLLYN"
  answer label: "Y"
- substance: "GREMYRLLHLNVEYTHGTRY"
  answer label: "Y"

Form field: amyloid nucleation score at least 0.8? Entry: "VFPALLNISRLISKTQCSQV"
N

Form field: amyloid nucleation score at least 0.8? Entry: "SWYCGTASLVAKAVADRAGD"
N

Form field: amyloid nucleation score at least 0.8? Entry: "EACETLRLYELCLFKWERFR"
N

Form field: amyloid nucleation score at least 0.8? Entry: "NHYCRFHFTLESFLAGHVAN"
Y

Form field: amyloid nucleation score at least 0.8? Entry: "YNVLCYFLNRFWMGYWYLLS"
Y
